system_name: AgSla1-D1-D2
method_notes: SPOT peptide array binding signal intensity (averaged, normalized) (arbitrary units (background-subtracted, floor 0; scale differs between SH3 domains)); higher = stronger binding of the SH3 domain to the peptide
Rule: SPOT peptide array binding signal intensity under 7 gives F, otherwise T.

Solved cases (5 shown):
[
  {
    "binder": "TTAPALPSLPPPPLL",
    "qualitative_label": "F"
  },
  {
    "binder": "NNNKMRPHLPPLSSG",
    "qualitative_label": "F"
  },
  {
    "binder": "SRSKPLPLTPNSKYN",
    "qualitative_label": "T"
  },
  {
    "binder": "NRARYLPQNPDIIAG",
    "qualitative_label": "F"
  },
  {
    "binder": "DTFLPPPPPPPSNFE",
    "qualitative_label": "F"
  }
]

**Query** # bool: SPOT peptide array binding signal intensity of `MFLISPPASPPPEFD` >= 7
**Result** F

**Query** Let us now turn to `KNPRRQLQIPRQQPS`
**Result** T

**Query** Let us now turn to `MARRRLPDRPPNGIG`
**Result** T

**Query** Let us now turn to `VTHRLRISIPGITGR`
**Result** T

**Query** Let us now turn to `VYTRTAFQIPGDDKI`
**Result** F

**Query** Let us now turn to `LLIRWLILMPLVGSR`
**Result** T

**Query** Let us now turn to `DTIDNVKSKIQDKEG`
**Result** F

**Query** Let us now turn to `APPLPPTAPPPPSLP`
**Result** F
